# Measurement protocol: Metabolic stability in human liver microsomes assessed as half life at 2 uM and mesured upto 60 mins in presence of NADPH by UHPLC-MS analysis
# Assay type: ADME, Microsome
# Measurement conditions: liver microsomes
Assay readout: half-life at 2 µM (min)
Kindly provide the numeric value in min only, without the unit symbol.

Task item: Requested field: half-life at 2 µM. Item: `COc1cnc(Nc2cccc(S(N)(=O)=O)c2)nc1N1CCN(c2ccccn2)CC1`
Reply: 43

====

# Tested on: UniProt:P37173
# Sequence (P37173 whole entry): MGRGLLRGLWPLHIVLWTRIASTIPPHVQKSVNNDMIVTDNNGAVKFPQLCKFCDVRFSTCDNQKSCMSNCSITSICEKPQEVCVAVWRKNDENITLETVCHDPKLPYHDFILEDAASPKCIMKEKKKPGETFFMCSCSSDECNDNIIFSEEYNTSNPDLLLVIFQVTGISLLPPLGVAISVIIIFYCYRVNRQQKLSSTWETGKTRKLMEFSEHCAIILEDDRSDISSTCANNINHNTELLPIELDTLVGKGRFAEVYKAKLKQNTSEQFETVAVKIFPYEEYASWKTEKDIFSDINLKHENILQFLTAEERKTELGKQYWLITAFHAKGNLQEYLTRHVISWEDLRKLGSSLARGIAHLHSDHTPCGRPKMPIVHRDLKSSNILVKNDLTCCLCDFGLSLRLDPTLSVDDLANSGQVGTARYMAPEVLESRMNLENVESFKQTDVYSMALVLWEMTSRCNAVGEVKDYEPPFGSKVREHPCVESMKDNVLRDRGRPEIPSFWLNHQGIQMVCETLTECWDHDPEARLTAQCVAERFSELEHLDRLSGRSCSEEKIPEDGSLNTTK
Assay readout: pIC50
// pIC50 here means minus log10 of the molar concentration (mol/L)

Task item: Requested field: pIC50. Item: `c1ccc2c(-c3cnn4cc(-c5ccc(N6CCNCC6)cc5)cnc34)ccnc2c1`
Reply: 8.38

====

# Measurement protocol: Metabolic stability in mouse liver microsomes assessed as intrinsic clearance per mg of protein at 2 uM and mesured upto 60 mins in presence of NADPH by UHPLC-MS analysis
# Type: ADME, Microsome
# Measurement conditions: liver microsomes, read-out: CLH
Assay readout: microsomal intrinsic clearance at 2 µM (µL/min/mg)
Kindly provide the numeric value in µL/min/mg only, without the unit symbol.

Task item: Requested field: microsomal intrinsic clearance at 2 µM. Item: `COc1cnc(Nc2cccc(S(N)(=O)=O)c2)nc1N1CCN(c2ccccn2)CC1`
Reply: 159
